ASSAY SYSTEM: ATP-binding cassette sub-family B member 6 (Homo sapiens) (UniProt Q9NP58)
Sequence (Q9NP58 whole entry, looked up): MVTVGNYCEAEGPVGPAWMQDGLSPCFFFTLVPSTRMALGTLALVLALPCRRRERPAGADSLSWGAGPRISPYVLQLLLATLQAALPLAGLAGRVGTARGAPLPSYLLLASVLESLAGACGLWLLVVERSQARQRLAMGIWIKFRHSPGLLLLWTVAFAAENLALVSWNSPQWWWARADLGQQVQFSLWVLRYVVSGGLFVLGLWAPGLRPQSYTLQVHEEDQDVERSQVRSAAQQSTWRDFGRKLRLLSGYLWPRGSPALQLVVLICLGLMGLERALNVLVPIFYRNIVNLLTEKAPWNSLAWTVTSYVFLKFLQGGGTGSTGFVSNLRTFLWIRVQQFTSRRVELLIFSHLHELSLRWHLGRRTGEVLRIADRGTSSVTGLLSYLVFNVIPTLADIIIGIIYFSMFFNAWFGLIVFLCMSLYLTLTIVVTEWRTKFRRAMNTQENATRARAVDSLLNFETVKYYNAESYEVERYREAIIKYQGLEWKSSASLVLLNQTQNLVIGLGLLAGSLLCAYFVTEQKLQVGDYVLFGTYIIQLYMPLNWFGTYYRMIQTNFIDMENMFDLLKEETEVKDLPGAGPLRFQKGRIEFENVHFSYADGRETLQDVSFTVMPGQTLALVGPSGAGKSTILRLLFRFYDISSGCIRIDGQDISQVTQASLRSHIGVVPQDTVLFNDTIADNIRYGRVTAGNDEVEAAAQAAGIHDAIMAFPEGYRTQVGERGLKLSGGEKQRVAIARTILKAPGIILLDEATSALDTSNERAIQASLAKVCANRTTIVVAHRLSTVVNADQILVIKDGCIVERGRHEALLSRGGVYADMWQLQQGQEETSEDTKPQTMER
METHOD NOTES: ABCB6 transporter inhibitors, pilot screen, K562-ABCB6 cells, flow cytometry, validation set (AID 588550);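 note: 0% = DMSO wells and 100% = benzethonium chloride 70 µM positive control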
STUDY CONDITIONS: K562-ABCB6 porphyrin accumulation, 1 h, at 10 µM, active compounds read high
The source made the active and inactive calls.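 Rule for the calls: active = inhibition above the screen-wide mean plus 3 SD, about 51%; inactive = the rest.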
The following molecules are shown together with reported inhibition values.

MOLECULE	inhibition
O=C1CC[C@@]2(O)[C@H]3Cc4ccc(O)c5c4[C@@]2(CCN3CC2CC2)[C@H]1O5	14% (inactive)
O=C(CCCN1CCC2(CC1)C(=O)NCN2c1ccccc1)c1ccc(F)cc1	-1% (inactive)
Fc1ccc(C(OCCN2CCCC2)c2ccc(Br)cc2)cc1 (stereo not given)	7% (inactive)
CCn1c(O)c(C(=O)CC2NCCc3ccccc32)c(=O)n(CC)c1=S (stereo not given)	-11% (inactive)
CC(C)C(=O)Nc1ccc(S(=O)(=O)N2CC3CC(C2)c2cccc(=O)n2C3)cc1 (stereo not given)	2% (inactive)
Cc1cc(Cl)ccc1OC(C)C(=O)O (stereo not given)	9% (inactive)
C[C@]12CC[C@@H](O)C[C@@H]1CC[C@@H]1[C@@H]2CC[C@]2(C)[C@@H](O)CC[C@@H]12	7% (inactive)
C[C@]12CCC(=O)C=C1CC[C@@H]1[C@@H]2CC[C@]2(C)C(=O)CC[C@@H]12	9% (inactive)
C=CC1CN2CCC1CC2[C@@H](OC(=O)c1ccc(OC)cc1)c1ccnc2ccccc12 (stereo not given in full)	5% (inactive)
C[C@H]1CC[C@@]2(C)[C@@H](CC[C@@H]3[C@@H]2CC[C@]2(C)[C@@H](O)CC[C@@H]32)C1	-3% (inactive)
c1cnc2c(c1)ccc1ncccc12	4% (inactive)
C[C@H]1OC[C@@H](C[N+](C)(C)C)O1	-2% (inactive)
C[N+]1(C)[C@@H]2CC[C@H]1CC(OC(=O)C(CO)c1ccccc1)C2 (stereo not given in full)	7% (inactive)
O=C1NC(=O)C2(Cc3ccccc3N3CCCC32)C(=O)N1c1ccc(Cl)cc1 (stereo not given)	12% (inactive)
CC(=O)C1=C(C)OC(N)=C(C(=O)OC(C)C)C12C(=O)Nc1ccccc12 (stereo not given)	8% (inactive)
CC(=O)OC1C2CCC1C(N1CCCC1)CC2 (stereo not given)	3% (inactive)
CCOC(=O)C(C)Oc1cc(C)cc2oc(=O)c3c(c12)CCCC3 (stereo not given)	12% (inactive)
C#CCN(C)C(C)Cc1ccccc1 (stereo not given)	-12% (inactive)
CN1[C@@H]2CC[C@H]1CC(OC(=O)C1C=Nc3ccccc31)C2 (stereo not given in full)	7% (inactive)
c1ccc2c(c1)Nc1ccccc1S2	9% (inactive)
CC[C@@H](CO)NC(=O)[C@@H]1C=C2c3cccc4c3c(cn4C)C[C@H]2N(C)C1	7% (inactive)
CC(C)[C@H]1C(=O)N2CCC[C@H]2[C@]2(O)O[C@](NC(=O)[C@@H]3C=C4c5cccc6[nH]cc(c56)C[C@H]4N(C)C3)(C(C)C)C(=O)N12	-96% (inactive)
CC/C(=C\C=C\[C@@H]1C=C[C@@H]2CCC[C@H]2[C@@H]1C(=O)c1ccc[nH]1)[C@@H]1O[C@@H]([C@@H](C)C(=O)O)CC[C@@H]1C	-1% (inactive)
S=C1NCCN1	14% (inactive)
C=C1CC[C@@]2(O)[C@H]3Cc4ccc(O)c5c4[C@@]2(CCN3CC2CC2)[C@H]1O5	13% (inactive)
CCC(COC(=O)c1cc(OC)c(OC)c(OC)c1)(c1ccccc1)N(C)C (stereo not given)	15% (inactive)
CC12CC[C@H]3[C@@H](CCC4(O)C[C@H](O)CCC34/C=N/NC(=O)Cc3ccccc3)C1(O)CCC2C1=CC(=O)OC1 (stereo not given in full)	5% (inactive)
O=C1NCCN2CCCC12 (stereo not given)	21% (inactive)
[N-]=[N+]=NC1C[C@H](n2ccc(=O)[nH]c2=O)O[C@@H]1CO (stereo not given in full)	6% (inactive)
C[N+]1(C)C2CCC1CC(OC(=O)C(CO)c1ccccc1)C2 (stereo not given)	-4% (inactive)
O=C(O)CCCc1ccc(N(CCCl)CCCl)cc1	8% (inactive)
Cc1ccc(-n2c(C)cc(/C=C3/C(=O)NC(=O)N(C)C3=O)c2C)cc1	-2% (inactive)
C[N+]1(C)CCN(c2ccccc2)CC1	12% (inactive)
CC(C)CCC1(CN2CCCC2=O)C(=O)NC(=O)NC1=O	5% (inactive)
C[C@@H]1O[C@@H](O[C@H]2C[C@@H](O)[C@]3(CO)[C@H]4[C@H](O)C[C@]5(C)[C@@H](C6COC(=O)C6)CC[C@]5(O)[C@@H]4CC[C@]3(O)C2)[C@H](O)[C@H](O)[C@H]1O (stereo not given in full)	-3% (inactive)
C=C1[C@@H](C)[C@H]2[C@H](Cc3ccccc3)NC(=O)[C@]23OC(=O)/C=C/[C@H](O)CCC[C@@H](C)C/C=C/[C@H]3[C@@H]1O	7% (inactive)
CCCC[N+]1(C)[C@@H]2CC(OC(=O)[C@H](CO)c3ccccc3)C[C@H]1[C@@H]1O[C@@H]12 (stereo not given in full)	28% (inactive)
COc1ccc2c(c1)CC1(CN2C)C(=O)NC(=O)N(CCc2ccccc2)C1=O (stereo not given)	27% (inactive)
CC12CN3CC(C)(CN(C1)C31CCOCC1)C2=O	13% (inactive)
C[C@]12CCC(=O)C=C1CC[C@@H]1[C@@H]2C(=O)C[C@]2(C)C(=O)CC[C@@H]12	-30% (inactive)

====

The following compounds are shown together with reported binding (% of control) values.
Test system: anti-desmoglein-3 scFv antibody binding to human DSG3
METHOD NOTES: inhibitors of anti-DSG3 scFv binding to DSG3, pilot screen, biochemical, validation compound set, bead-based, flow cytometry (AID 588368);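 note: signal is the median channel fluorescence of bead-bound GFP antibody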
STUDY CONDITIONS: Protein G beads, DSG3-Fc, scFv-GFP binding, at 10 µM, active compounds read low

COMPOUND	binding (% of control) [%]
Cc1ccc2c(c1)C1CN(C)CCC1N2C(=O)Nc1cccc(Cl)c1 (stereo not given)	102
Fc1ccc(C(OCCN2CCCC2)c2ccc(Br)cc2)cc1 (stereo not given)	103
C[C@H]1CCCC(=O)CCC/C=C/c2cc(O)cc(O)c2C(=O)O1	99
C[C@H]1OC[C@@H](C[N+](C)(C)C)O1	102
CN1C(=O)CN=C(c2ccc(Cl)cc2)c2cc(Cl)ccc21	96.8
O=C1CCCC2=C1C(c1cccnc1)Nc1ccccc1N2 (stereo not given)	99.8
CCNC(=S)N(C)CCc1cc2c(c(OC)c1C=C1C(=O)N(C)C(=O)N(C)C1=O)OCO2	100
C[C@]12CC[C@@H](O)C[C@@H]1CC[C@@H]1[C@@H]2CC[C@]2(C)C(=O)CC[C@@H]12	99
CCOC(=O)C1=C(C)OC(N)=C(C(=O)OCC)[C@@]12C(=O)N(CC(N)=O)c1ccccc12	104
C[C@H](O)[C@H]1CC[C@H]2[C@@H]3CCC4=CC(=O)CC[C@]4(C)[C@H]3CC[C@]12C	102

====

ASSAY SYSTEM: Botulinum neurotoxin type A (Clostridium botulinum)
METHOD NOTES: BoNT/A light chain protease inhibitors, biochemical, multiplex microsphere flow cytometry, validation set (AID 588460)
STUDY CONDITIONS: at 10 µM, active compounds read high
The following compounds are shown together with reported inhibition values.

COMPOUND	inhibition, %
COc1ccc(S(=O)(=O)N2CCN(C(=O)COc3ccc4c(C)cc(=O)oc4c3)CC2)cc1	0.1
O=S(=O)(NCCCCCNS(=O)(=O)c1ccccc1)c1ccccc1	-0.1
CCOc1ccc(C(NC(C)=O)c2ccc(OC)c(OC)c2)cc1 (stereo not drawn)	-0.9
NS(=O)(=O)c1cc2c(cc1Cl)NC(CSCc1ccccc1)=NS2(=O)=O	0
COc1ccc(-c2nc3c(=O)n(C)c(=O)[nH]c3n2CCc2ccccc2)cc1	0.2
Cc1ncc([N+](=O)[O-])n1CCO	-0.4
FC(F)(F)c1ccc(-c2noc(CN3CCCN(C4CCCCC4)CC3)n2)cc1	-1.4
CC(C)CCC1(CN2CCCC2=O)C(=O)NC(=O)NC1=O	0.7
CCN1/C(=C/C=C/C=C/c2sc3ccccc3[n+]2CC)Sc2ccccc21	16.8
CCOCC(=O)Nc1nc2ccccc2s1	1.5
Cc1c(OC(=O)CNC(=O)OC(C)(C)C)ccc2c3c(c(=O)oc12)CCC3	-0.5
COc1cc(C(=O)CCN2CCC(c3ccccc3)C2)cc(OC)c1OC (stereo not drawn)	1.9
Fc1ccc(C(OCCN2CCCC2)c2ccc(Br)cc2)cc1 (stereo not drawn)	-0.6
O=C(O)CCCc1ccccc1	-2.3
c1ccc(-c2ccc(C(c3ccccc3)n3ccnc3)cc2)cc1 (stereo not drawn)	-1.3
Nc1ncnc2c1ncn2C1OC(CO)C(O)C1O (stereo not drawn)	-0.2
CCCCOc1ccc(CC(=O)NO)cc1	-0.2
CN(C)CCOc1ccccc1Cc1ccccc1	1.6
CSCC[C@H](NC(=O)NC1CCCC1)C(=O)O	0.2
CC(=O)C1=C(O)C(=O)N(CC(=O)O)C1c1ccccc1Cl (stereo not drawn)	-0.5
CC1(C)CC(NCc2ccccc2)CCO1 (stereo not drawn)	5.6
Cc1ccc2[nH]c3c(=O)n(CCc4cnc[nH]4)cnc3c2c1	-0.7
Cc1ccc2nc(NC3=NC(CC(=O)O)C(=O)N3)nc(C)c2c1 (stereo not drawn)	-1
CCc1cn([C@H]2C[C@H](O)[C@@H](CO)O2)c(=O)[nH]c1=O	-2.2
OCC(O)CN1CCN(c2ccccc2)CC1 (stereo not drawn)	0.8
CCOC(=O)C1C(=O)OC(C)(C)C1C(C)C(=O)c1ccc(C)cc1 (stereo not drawn)	0.5
COc1ccccc1C(=O)N=C1NC(=O)CC2C(=O)NCCN12 (stereo not drawn)	-1.5
COC(=O)c1ccc(NC(=O)C23CCC(C)(C(=O)O2)C3(C)C)cc1 (stereo not drawn)	-1.5
CCN(CC)Cc1c[nH]c2c(C(=O)OC)cccc12	0.3
COc1ccc(C(=O)[C@H]2[C@H]3C(=O)N(c4ccccc4)C(=O)[C@H]3C3C=CC=NN32)cc1 (stereo partly drawn)	4.7
CC1(C)CC(=O)C2=C(C1)c1c(ccc3ccccc13)NC2c1ccco1 (stereo not drawn)	1.1
O=C(COc1ccc2c(-c3ccccc3)cc(=O)oc2c1)NCc1cccs1	-0.1
COC(=O)c1ccc(-c2ncc(-c3cccc4ccccc34)o2)cc1	-1.3
COc1c2occc2c(OC)c2c(=O)cc(C)oc12	-1.1
COc1ccc2[nH]cc(CCNC(=O)C3CCCNC3=O)c2c1 (stereo not drawn)	-1.5
Cc1csc(N)n1	0.1
CN1C(=O)N(C)C(=O)C2(Cc3ccccc3N3CCOCC32)C1=O (stereo not drawn)	0.6
Nc1cccc2nc3ccccc3cc12	2.3
CC(C)OC(=O)CC12CN3CN(C1)CC(CC(=O)OC(C)C)(C3)C2=O	-0.4
O=C(c1ccc(F)cc1)[C@@H]1[C@@H](C(=O)c2ccccc2)[C@@]2(C(=O)Nc3ccccc32)[C@H]2c3ccccc3C=CN12	0.3
CC(C)CCC1(CCNC(C)c2cccs2)CCOC(C)(C)C1 (stereo not drawn)	-0.9
Nc1ccc2[nH]ncc2c1	-1.3
CCCCNc1ccc(C(=O)OCCN(C)C)cc1	0.4
CC1CCCc2sc3ncn(N)c(=N)c3c21 (stereo not drawn)	0.3
O=C(O)CCSc1nc2ccccc2s1	-1.2
N#Cc1c2c(c(-c3ccccc3)[nH]c1=O)CCCC2	-0.9
CC1CCC[C@H](O)CCCCCc2cc(O)cc(O)c2C(=O)O1 (stereo partly drawn)	0.6
Cc1ccc(-n2c(C)cc(/C=C3/C(=O)NC(=O)N(C)C3=O)c2C)cc1	0.3

Data origin: PubChem BioAssay
